experiment: Quantitative High-Throughput drug screen in 47 multiple myeloma cell lines against the NCATS MIPE library collection: EJM_DSMZ cell viability assay (AID 1918926; further: nearly all actives have a fitted effect of over 30% in size; further: potency means the concentration at half of the fitted maximal effect); settings: EJM myeloma cell viability, CellTiter-Glo ATP, 48 h; series mostly up to 45.8 µM
Inconclusive results are not listed. Calls of active or inactive are those of the source. The call rests on the fitted dose curve; in most records, active means well fitted cell-killing curve with a large enough effect; inconclusive means small, poorly fitted or top-dose-only effect, or effect the other way; inactive means no such curve, though single readings can be large or run the other way.
experimentalEndpoint: Potency

> print(dat)
                             compoundstring  experimentalendpoint    measuredresult
1             Oc1ccc(C2=Cc3ccc(O)cc3OC2)cc1               Potency  2.35 µM (active)
2  O=C(CCc1ccc(O)cc1)c1c(O)cc(O)cc1O[C@@H]1O[C@H](CO)[C@H](O)[C@H](O)[C@H]1O               Potency          inactive
3  CC(C)C[C@H](CC(=O)O)C(=O)N[C@@H](Cc1c[nH]c2ccccc12)C(=O)N[C@@H](C)c1ccccc1               Potency          inactive
4  COc1cc2ncnc(Nc3ccc(F)c(Cl)c3)c2cc1OCCCN1CCOCC1               Potency  6.05 µM (active)
5  COc1cc(NC(=O)c2ccc(-c3ccc(Cl)cc3)o2)cc(OC)c1               Potency          inactive

----------
test system: MCC-13; assay: qHTS assay to identify novel small-molecules to repurpose for Merkel cell carcinoma treatment (AID 1296009); details: MCC and control cell lines, CellTiter-Glo viability, 72 h; series mostly up to 46 µM; further: nearly all actives have a fitted effect of over 60% in size
Records with an inconclusive call do not appear. The source made the active and inactive calls. Calls come from the whole dose curve; as a rule, active = well fitted inhibition curve with a large enough effect; inconclusive = small, poorly fitted or top-dose-only effect; inactive = flat fitted curve, though single readings scatter.

compound	outcome
CC(=O)Oc1cc2c(s1)CCN(C(C(=O)C1CC1)c1ccccc1F)C2 (stereo not drawn)	inactive
CC[C@H]1OC(=O)[C@H](C)C(=O)[C@H](C)[C@@H](O[C@H]2O[C@H](C)C[C@H](N(C)C)[C@@H]2O)[C@](C)(OC)C[C@@H](C)C(=O)[C@H](C)[C@H]2N(CCCCn3cnc(-c4cccnc4)c3)C(=O)O[C@]12C	inactive
N[C@@]1(C(=O)O)CS(=O)(=O)[C@H]2[C@H](C(=O)O)[C@H]21	inactive

----------
assay: qHTS for differential inhibitors of proliferation of Plasmodium falciparum line Dd2 (AID 1882); conditions: Plasmodium falciparum Dd2 proliferation inhibition; series mostly up to 28.7 µM; further: nearly all actives have a fitted effect of over 65% in size
Records with an inconclusive call do not appear. Active and inactive are the calls of the source. Calls come from the whole dose curve; as a rule, active = well fitted inhibition curve with a large enough effect; inconclusive = small, poorly fitted or top-dose-only effect; inactive = flat fitted curve, though single readings scatter.
Outcome codes: Y (active), N (inactive)

> print(dat)
                              compoundstring  discretelabel
 1         O=C1NC(=O)C(c2ccccc2)(c2ccccc2)N1              N
 2            O=C1NCC2(CCN(CCc3ccccc3)CC2)O1              N
 3                CCN(CC)CCNC(=O)c1ccc(N)cc1              N
 4                CCN(CC)CCOC(=O)c1ccc(N)cc1              N
 5              C[N+](C)(C)CCCCCC[N+](C)(C)C              N
 6  CC1=C(/C=C/C(C)=C/C=C/C(C)=C/C(=O)Nc2ccc(O)cc2)C(C)(C)CCC1              Y
 7  CC(=O)c1ccc(S(=O)(=O)NC(=O)NC2CCCCC2)cc1              N
 8         CC1(C)CCC2=C(O1)c1ccccc1C(=O)C2=O              Y
 9  CC/C(=C(\c1ccccc1)c1ccc(OCCN(C)C)cc1)c1ccccc1              Y
10      O=c1cc(-c2ccc(O)cc2)oc2cc(O)cc(O)c12              N
11       CC(=O)CCCCn1c(=O)c2c(ncn2C)n(C)c1=O              N
